Value source: paper PMC3897212

ASSAY_DETAILS: Time course tissue distribution / pharmacokinetic study in mice
Format: in vivo, female FVB mice
ASSAY_CONDITIONS: female, FVB, mouse, slowly perfused tissue, po, 60 mg/kg

SMILES_CODE: CS(=O)(=O)CCNCc1ccc(-c2ccc3ncnc(Nc4ccc(OCc5cccc(F)c5)c(Cl)c4)c3c2)o1
UNIT_ABBREVIATION: µM·h
AUC(0-t): 9.52

* * *

ASSAY_DETAILS: Time course tissue distribution / pharmacokinetic study in mice
Assay type: in vivo, female FVB mice
ASSAY_CONDITIONS: female, FVB, mouse, plasma, po, 30 mg/kg
REPORTED_PROPERTY: AUC(0-t) (µM·h)

COMPOUND: CS(=O)(=O)CCNCc1ccc(-c2ccc3ncnc(Nc4ccc(OCc5cccc(F)c5)c(Cl)c4)c3c2)o1 [lapatinib]
RESULT_VALUE: 12

* * *

ASSAY_DETAILS: Time course tissue distribution / pharmacokinetic study in mice
Format: in vivo, female FVB mice
ASSAY_CONDITIONS: female, FVB, mouse, kidney, po, 30 mg/kg
REPORTED_PROPERTY: half-life (h)

SMILES_CODE: CS(=O)(=O)CCNCc1ccc(-c2ccc3ncnc(Nc4ccc(OCc5cccc(F)c5)c(Cl)c4)c3c2)o1
REPORTED_PROPERTY: half-life
UNIT_ABBREVIATION: h
RESULT_VALUE: 2.53

* * *

ASSAY_DETAILS: Time course tissue distribution / pharmacokinetic study in mice
Format: in vivo, female FVB mice
ASSAY_CONDITIONS: female, FVB, mouse, plasma, po, 60 mg/kg
REPORTED_PROPERTY: half-life (h)

MOLECULE: CS(=O)(=O)CCNCc1ccc(-c2ccc3ncnc(Nc4ccc(OCc5cccc(F)c5)c(Cl)c4)c3c2)o1 [lapatinib]
RESULT_VALUE: 3.42

* * *

ASSAY_DETAILS: Time course tissue distribution / pharmacokinetic study in mice
Format: in vivo, female FVB mice
ASSAY_CONDITIONS: female, FVB, mouse, brain, po, 90 mg/kg

SMILES_CODE: CS(=O)(=O)CCNCc1ccc(-c2ccc3ncnc(Nc4ccc(OCc5cccc(F)c5)c(Cl)c4)c3c2)o1
AUC(0-t) [µM·h]: 2.26

* * *

ASSAY_DETAILS: Time course tissue distribution / pharmacokinetic study in mice
Format: in vivo, female FVB mice
ASSAY_CONDITIONS: female, FVB, mouse, intestine, po, 90 mg/kg
REPORTED_PROPERTY: half-life

SMILES_CODE: CS(=O)(=O)CCNCc1ccc(-c2ccc3ncnc(Nc4ccc(OCc5cccc(F)c5)c(Cl)c4)c3c2)o1
REPORTED_PROPERTY: half-life
RESULT_VALUE: 2.55 h

* * *

ASSAY_DETAILS: Time course tissue distribution / pharmacokinetic study in mice
Format: in vivo, female FVB mice
ASSAY_CONDITIONS: female, FVB, mouse, liver, po, 60 mg/kg

COMPOUND: CS(=O)(=O)CCNCc1ccc(-c2ccc3ncnc(Nc4ccc(OCc5cccc(F)c5)c(Cl)c4)c3c2)o1 [lapatinib]
half-life, h: 2.75

* * *

ASSAY_DETAILS: Time course tissue distribution / pharmacokinetic study in mice
Assay type: in vivo, female FVB mice
ASSAY_CONDITIONS: female, FVB, mouse, slowly perfused tissue, po, 60 mg/kg
REPORTED_PROPERTY: half-life (min)

SMILES_CODE: CS(=O)(=O)CCNCc1ccc(-c2ccc3ncnc(Nc4ccc(OCc5cccc(F)c5)c(Cl)c4)c3c2)o1
RESULT_VALUE: 154

* * *

ASSAY_DETAILS: Time course tissue distribution / pharmacokinetic study in mice
Assay type: in vivo, female FVB mice
ASSAY_CONDITIONS: female, FVB, mouse, intestine, po, 60 mg/kg
REPORTED_PROPERTY: half-life (h)

SMILES_CODE: CS(=O)(=O)CCNCc1ccc(-c2ccc3ncnc(Nc4ccc(OCc5cccc(F)c5)c(Cl)c4)c3c2)o1
REPORTED_PROPERTY: half-life
RESULT_VALUE: 3.05

* * *

ASSAY_DETAILS: Time course tissue distribution / pharmacokinetic study in mice
Assay type: in vivo, female FVB mice
ASSAY_CONDITIONS: female, FVB, mouse, intestine, po, 60 mg/kg
REPORTED_PROPERTY: AUC(0-t) (µM·h)

COMPOUND: CS(=O)(=O)CCNCc1ccc(-c2ccc3ncnc(Nc4ccc(OCc5cccc(F)c5)c(Cl)c4)c3c2)o1 [lapatinib]
REPORTED_PROPERTY: AUC(0-t)
RESULT_VALUE: 235

* * *

ASSAY_DETAILS: Time course tissue distribution / pharmacokinetic study in mice
Format: in vivo, female FVB mice
ASSAY_CONDITIONS: female, FVB, mouse, slowly perfused tissue, po, 30 mg/kg

SMILES_CODE: CS(=O)(=O)CCNCc1ccc(-c2ccc3ncnc(Nc4ccc(OCc5cccc(F)c5)c(Cl)c4)c3c2)o1
UNIT_ABBREVIATION: h
half-life: 3.88

* * *

ASSAY_DETAILS: Single 100 mg dose plasma pharmacokinetic study in healthy subjects
Assay type: in vivo
ASSAY_CONDITIONS: human, po
REPORTED_PROPERTY: half-life

SMILES_CODE: CS(=O)(=O)CCNCc1ccc(-c2ccc3ncnc(Nc4ccc(OCc5cccc(F)c5)c(Cl)c4)c3c2)o1
REPORTED_PROPERTY: half-life
RESULT_VALUE: 570 min

* * *

ASSAY_DETAILS: Time course tissue distribution / pharmacokinetic study in mice
Type: in vivo, female FVB mice
ASSAY_CONDITIONS: female, FVB, mouse, kidney, po, 30 mg/kg

COMPOUND: CS(=O)(=O)CCNCc1ccc(-c2ccc3ncnc(Nc4ccc(OCc5cccc(F)c5)c(Cl)c4)c3c2)o1 [lapatinib]
UNIT_ABBREVIATION: µM·h
AUC(0-t): 50.4

* * *

ASSAY_DETAILS: Time course tissue distribution / pharmacokinetic study in mice
Assay type: in vivo, female FVB mice
ASSAY_CONDITIONS: female, FVB, mouse, lung, po, 60 mg/kg
REPORTED_PROPERTY: half-life (h)

SMILES_CODE: CS(=O)(=O)CCNCc1ccc(-c2ccc3ncnc(Nc4ccc(OCc5cccc(F)c5)c(Cl)c4)c3c2)o1
RESULT_VALUE: 3.04

* * *

ASSAY_DETAILS: Time course tissue distribution / pharmacokinetic study in mice
Format: in vivo, female FVB mice
ASSAY_CONDITIONS: female, FVB, mouse, intestine, po, 30 mg/kg

SMILES_CODE: CS(=O)(=O)CCNCc1ccc(-c2ccc3ncnc(Nc4ccc(OCc5cccc(F)c5)c(Cl)c4)c3c2)o1
UNIT_ABBREVIATION: h
half-life: 2.79

* * *

ASSAY_DETAILS: Time course tissue distribution / pharmacokinetic study in mice
Assay type: in vivo, female FVB mice
ASSAY_CONDITIONS: female, FVB, mouse, heart, po, 90 mg/kg
REPORTED_PROPERTY: half-life (h)

SMILES_CODE: CS(=O)(=O)CCNCc1ccc(-c2ccc3ncnc(Nc4ccc(OCc5cccc(F)c5)c(Cl)c4)c3c2)o1
REPORTED_PROPERTY: half-life
RESULT_VALUE: 2.32

* * *

ASSAY_DETAILS: Time course tissue distribution / pharmacokinetic study in mice
Format: in vivo, female FVB mice
ASSAY_CONDITIONS: female, FVB, mouse, slowly perfused tissue, po, 30 mg/kg

SMILES_CODE: CS(=O)(=O)CCNCc1ccc(-c2ccc3ncnc(Nc4ccc(OCc5cccc(F)c5)c(Cl)c4)c3c2)o1
AUC(0-t), µM·h: 2.74

* * *

ASSAY_DETAILS: Time course tissue distribution / pharmacokinetic study in mice
Format: in vivo, female FVB mice
ASSAY_CONDITIONS: female, FVB, mouse, plasma, po, 30 mg/kg

MOLECULE: CS(=O)(=O)CCNCc1ccc(-c2ccc3ncnc(Nc4ccc(OCc5cccc(F)c5)c(Cl)c4)c3c2)o1 [lapatinib]
half-life (h): 2.73

* * *

ASSAY_DETAILS: Time course tissue distribution / pharmacokinetic study in mice
Type: in vivo, female FVB mice
ASSAY_CONDITIONS: female, FVB, mouse, lung, po, 90 mg/kg

MOLECULE: CS(=O)(=O)CCNCc1ccc(-c2ccc3ncnc(Nc4ccc(OCc5cccc(F)c5)c(Cl)c4)c3c2)o1 [lapatinib]
UNIT_ABBREVIATION: h
half-life: 1.72

* * *

ASSAY_DETAILS: Time course tissue distribution / pharmacokinetic study in mice
Assay type: in vivo, female FVB mice
ASSAY_CONDITIONS: female, FVB, mouse, heart, po, 30 mg/kg

SMILES_CODE: CS(=O)(=O)CCNCc1ccc(-c2ccc3ncnc(Nc4ccc(OCc5cccc(F)c5)c(Cl)c4)c3c2)o1
half-life (h): 2.59

* * *

ASSAY_DETAILS: Time course tissue distribution / pharmacokinetic study in mice
Format: in vivo, female FVB mice
ASSAY_CONDITIONS: female, FVB, mouse, kidney, po, 90 mg/kg

SMILES_CODE: CS(=O)(=O)CCNCc1ccc(-c2ccc3ncnc(Nc4ccc(OCc5cccc(F)c5)c(Cl)c4)c3c2)o1
AUC(0-t) / µM·h: 227
